# assay-method-text: NOD1 signaling inhibitors, primary screen, cell-based, luminescence, uHTS (AID 1578);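 further: HEK-293T reporter cells stimulated with the NOD1 agonist gamma-tri-DAP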
# condition-parameters: NOD1-driven NF-kB luciferase reporter cells, at 4 µM, hits give high values
Hit rate of the full screen: of about 290,000 compounds, about 3,000 (1%) were called active. The sample holds actives, similar compounds and a random draw of the others, so the mix is not that of the screen.
Values of inhibition greater than or equal to 30% map to Fulfilled; values below map to Not fulfilled.

{"molecule": "C/C(=N\\NC(=O)C1CC1)c1ccc(C(C)(C)C)cc1", "label": "Not fulfilled"}
{"molecule": "COc1ccc(O)c(C2(O)C(=O)c3ccccc3C2=O)c1", "label": "Not fulfilled"}
{"molecule": "Oc1c(Br)cc(/C=N/n2c(-c3ccccc3)n[nH]c2=S)c(Br)c1O", "label": "Not fulfilled"}
{"molecule": "CC(OC(=O)c1ccco1)C(=O)NC1CCCC1 (stereo unspecified)", "label": "Not fulfilled"}
{"molecule": "Oc1c(Br)cc(Br)c(/C=N/n2c(-c3ccccc3)n[nH]c2=S)c1Br", "label": "Fulfilled"}
{"molecule": "O=C(CSc1nc2ccccc2n1-c1ccccc1)Nc1ncc(Cl)cc1Cl", "label": "Fulfilled"}
{"molecule": "NC(=O)c1c(NC(NC(=O)c2ccco2)(C(F)(F)F)C(F)(F)F)sc2c1CCCC2", "label": "Not fulfilled"}
{"molecule": "COc1ccc(-n2c(SCC(=O)Nc3ncc(Cl)cc3Cl)nc3ccccc32)cc1", "label": "Fulfilled"}
{"molecule": "O=C(/C=C/Nc1ccc(F)cc1F)c1ccco1", "label": "Not fulfilled"}
{"molecule": "O=C(Nc1nc(-c2cccs2)cs1)c1ccc(Cl)s1", "label": "Not fulfilled"}
{"molecule": "O=C(Nc1nc(-c2ccccn2)cs1)c1ccc(Br)s1", "label": "Fulfilled"}

* * *

# assay-method-text: NOD1 signaling inhibitors, primary screen, cell-based, luminescence, uHTS (AID 1578);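 further: HEK-293T reporter cells stimulated with the NOD1 agonist gamma-tri-DAP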
# condition-parameters: NOD1-driven NF-kB luciferase reporter cells, at 4 µM
Hit rate of the full screen: of about 290,000 compounds, about 3,000 (1%) were called active. Cut-off read from the data, not from the text of the source: active = inhibition mostly above about 36% (no sharp cut-off); inactive = mostly below about 34%. Only a selection was taken, and actives are over-represented in it overall.
Labels: YES = active, NO = inactive

{"compound": "COc1cc(C2NC(=O)NC(C)=C2C(C)=O)cc(OC)c1OC (configuration not stated)", "label": "YES"}
{"compound": "COc1cccc(=O)c2c(C)n(-c3ccc(C(=O)O)cc3)c(C)c12", "label": "YES"}
{"compound": "O=S(=O)(Nc1ccc2c(c1)CCC2)c1cccs1", "label": "NO"}
{"compound": "CCOC(=O)C1CCN(S(=O)(=O)c2ccc(C)c(C)c2)CC1", "label": "NO"}
{"compound": "COc1ccc(NC(=O)c2cc(S(=O)(=O)N(Cc3ccccc3)c3ccccc3)ccc2Cl)cn1", "label": "NO"}
{"compound": "COc1ccc(N/C=C/C(=O)c2ccccc2)cc1", "label": "NO"}
{"compound": "COc1cc(/C=C/C(=O)N2C(=O)c3cccc(N)c3C2=O)cc(OC)c1OC", "label": "NO"}
{"compound": "O=C(/C(N=Nc1cccc(C(F)(F)F)c1)=C(/O)c1cccs1)C(F)(F)F", "label": "YES"}
{"compound": "N#C/C(=C\\c1ccc(Cl)c([N+](=O)[O-])c1)c1ccccn1", "label": "YES"}
{"compound": "Cc1cc(OCc2ccc(C(=O)n3cccn3)o2)ccc1Cl", "label": "NO"}
{"compound": "Cc1ccc(-c2ccc(/C=N/n3cnnc3)o2)cc1Cl", "label": "NO"}
{"compound": "Cc1ccc(C2(CC(=O)O)CCOC(C)(C)C2)cc1 (configuration not stated)", "label": "NO"}
{"compound": "Cc1cc(=O)oc(C)c1C(=O)OCC(=O)c1ccc(Cl)c(Cl)c1", "label": "NO"}
{"compound": "Cc1ccc(NS(=O)(=O)c2ccc3[nH]c(=O)[nH]c3c2)c(C)c1", "label": "NO"}
{"compound": "COc1ccc(C=O)cc1OC(=O)N1CCOCC1", "label": "NO"}
{"compound": "COC(=O)CC(NS(=O)(=O)c1cccs1)c1ccc2c(c1)OCO2 (configuration not stated)", "label": "NO"}
{"compound": "O=C(O)CNC(=O)CCN1C(=O)c2ccccc2C1=O", "label": "NO"}
{"compound": "Cc1cccc(C)c1NS(=O)(=O)c1ccc2c(c1)C(=O)c1ccccc1C2=O", "label": "NO"}
{"compound": "CC(C)(C)c1ccc(-c2noc(-c3ccno3)n2)cc1", "label": "NO"}
{"compound": "Oc1[nH]c(=S)sc1C=C1N=c2ccccc2=N1", "label": "NO"}
{"compound": "O=C(O)c1nc(N2CCCC2)ncc1Cl", "label": "NO"}
{"compound": "COc1ccc(C(=O)OC(COc2ccccc2)Cn2ccnc2)cc1 (configuration not stated)", "label": "NO"}
{"compound": "Cc1ccc(S(=O)(=O)N(C)C)cc1NC(=O)CN1C(=O)NC2(CCCCCC2)C1=O", "label": "NO"}
{"compound": "Fc1ccc(-c2ccc(/C=N\\n3cnnc3)o2)cc1Cl", "label": "NO"}
{"compound": "CCCCN(C)C(=O)Cn1nc(-c2ccc(Cl)cc2)ccc1=O", "label": "NO"}
{"compound": "Cc1nc(NCc2ccco2)c2c3c(sc2n1)CCC3", "label": "NO"}
{"compound": "Cc1ccc(C2=NNC3(CCOC(C)(C)C3)S2)cc1 (configuration not stated)", "label": "YES"}
{"compound": "Nc1cccc2c1C(=O)N(C(=O)/C=C/c1cccc(Br)c1)C2=O", "label": "NO"}
{"compound": "Cc1ccc(NC(=O)CN(C)CC(=O)Nc2c(C)cccc2C)c(Br)c1", "label": "NO"}
{"compound": "COC(=O)C1CCN(Cc2cn(-c3ccccc3)nc2-c2ccc3c(c2)OCO3)CC1", "label": "NO"}
{"compound": "Cc1nc(NCc2ccco2)c2c(C)c(C)sc2n1", "label": "YES"}
{"compound": "CC1CCCN(c2ccc3nc4ccccc4c(=O)n3n2)C1 (configuration not stated)", "label": "NO"}
{"compound": "CCCOC(=O)c1cc(=O)[nH]c2ccccc12", "label": "NO"}
{"compound": "CCN(CC)c1ccc(/C=C(\\C#N)c2ccccn2)cc1", "label": "NO"}
{"compound": "O=C(CNC(=S)N(CCCN1CCOCC1)Cc1cccs1)NCc1ccc(Cl)cc1", "label": "NO"}
{"compound": "CC1CCCN(CC(=O)Nc2ccc(S(=O)(=O)N3CCCCCC3)cc2)C1 (configuration not stated)", "label": "NO"}
{"compound": "COc1ccc(-n2c(C)c3c(OC)cccc(=O)c3c2C)cc1", "label": "NO"}
{"compound": "CC(=O)C(=Cc1ccc(C(=O)O)cc1)C(C)=O", "label": "NO"}
{"compound": "Cc1nc2ccc(NS(=O)(=O)c3ccc(F)cc3)cc2s1", "label": "NO"}
{"compound": "CCOC(=O)COc1c(Br)cc(C2NC(=O)NC(C)=C2C(C)=O)cc1OC (configuration not stated)", "label": "NO"}
{"compound": "CN(c1ccc2nc3ccccc3c(=O)n2n1)C1CCCCC1", "label": "YES"}
{"compound": "Cc1cc(=O)oc(C)c1C(=O)OCC(=O)c1ccc(Br)cc1", "label": "NO"}
{"compound": "CN(C)c1ccc(/C=C(\\C#N)c2ccccn2)cc1", "label": "YES"}
{"compound": "Cc1cc(-c2ccc(/C=N/n3cnnc3)o2)ccc1Cl", "label": "YES"}
{"compound": "O=c1cc(N2CCN(c3ccc(F)cc3)CC2)[nH]c(=O)n1Cc1ccc(F)cc1", "label": "NO"}
{"compound": "CNc1ccc(/C=C(\\C#N)c2ccccn2)cc1[N+](=O)[O-]", "label": "NO"}
{"compound": "Cc1ccc(S(=O)(=O)Nc2ccccc2-c2ccccc2)cc1", "label": "NO"}

* * *

# assay-method-text: NOD1 signaling inhibitors, primary screen, cell-based, luminescence, uHTS (AID 1578);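 further: HEK-293T reporter cells stimulated with the NOD1 agonist gamma-tri-DAP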
# condition-parameters: NOD1-driven NF-kB luciferase reporter cells, at 4 µM
The whole screen tested about 290,000 compounds, of which about 3,000 (1%) were called active. Rule as the data show it: active = inhibition mostly above about 36% (no sharp cut-off); inactive = mostly below about 34%. The entries come from a sample that favours actives as a whole.
Labels: T (active), F (inactive)

{"molecule-smiles": "Cc1cc(C)c(-n2c(SCCS(=O)(=O)c3ccc(F)cc3)n[nH]c2=O)c(C)c1", "label": "T"}
{"molecule-smiles": "CC(C)c1cc(C(=O)O)on1", "label": "F"}
{"molecule-smiles": "O=C(CSc1ncn[nH]1)NCCCc1ccccc1", "label": "F"}
{"molecule-smiles": "CCCCCCNC(=O)CCc1nc2cccnc2n1Cc1ccc(OC)cc1", "label": "F"}
{"molecule-smiles": "CC(C)c1cc(NC(=O)CSc2nnc(-c3ccccc3F)n2C)on1", "label": "F"}
{"molecule-smiles": "O=C(Nc1ccccc1)Nc1ccc2ocnc2c1", "label": "F"}
{"molecule-smiles": "COc1ccc(CCNC(=O)c2ccc3c(c2)N(Cc2ccc(F)cc2)CCS3)cc1OC", "label": "F"}
{"molecule-smiles": "O=c1[nH]nc(SCCS(=O)(=O)c2ccc(F)cc2)n1-c1ccccc1", "label": "F"}
{"molecule-smiles": "Nc1[nH]c(N=NC(=O)c2ccccc2)c2ccccc12", "label": "F"}
{"molecule-smiles": "Cc1ccc(S(=O)(=O)CCSc2n[nH]c(=O)n2-c2ccccc2)cc1", "label": "F"}
{"molecule-smiles": "CCC(=O)Nc1cc2nn(-c3ccccc3)nc2cc1Cl", "label": "F"}
